In this section, each of the molecules is paired with its reported Ki.
- SYSTEM_NAME: HPK1
- ASSAY_COMMENT: HPK1 Lantha Binding Assay ("Lanth")
- SETUP_CONDITIONS: Table B1-1, read-out: HPK1 Ki (μM) (Lanth)
Supply the numeric figure in pM, leaving out any unit text.

Cc1ccncc1-c1cc2cc(NC(=O)[C@@H]3C[C@H]3CC#N)ncc2c(N)n1 [Compound 194]	967

Let's switch to this molecule now.
// query Name the reported Ki value associated with the molecule Cc1ccncc1-c1nc(N)c2cnc(NC(=O)[C@@H]3C[C@H]3CC#N)cc2c1Cl [Compound 269]
// result 2300

###

- SYSTEM_NAME: HPK1
- ASSAY_COMMENT: HPK1 Lantha Binding Assay ("Lanth")
- SETUP_CONDITIONS: Table B1-1, read-out: HPK1 Ki (μM) (Lanth)
Strictly below 3 nM in Ki: label 1. Otherwise: label 0.

Cc1ccncc1-c1cc2cc(NC(=O)[C@@H]3C[C@H]3C3CCOCC3)ncc2c(N)n1 [Compound 325]	label 0
Cc1c(N)cncc1-c1cc2cc(NC(=O)[C@H]3C[C@@H]3CC#N)ncc2c(N)n1 [Compound 247]	label 1
CCc1ccncc1-c1cc2cc(Nc3cnn(CCO)c3)ncc2c(N)n1 [Compound 85]	label 1
CCc1ccncc1-c1cc2cc(Nc3cnn(C4CCNCC4)c3)ncc2c(N)n1 [Compound 78]	label 1

// query # TODO verify Ki < 3 nM strictly for this molecule: CCc1ccncc1-c1cc2cc(Nc3cnn(C)c3)ncc2c(N)n1 [Compound 74]
// result label 1

// query Decide: Ki of Nc1nc(-c2cnccc2CCO)cc2cc(NC(=O)[C@H]3C[C@@H]3c3cccnc3)ncc12 [Compound 254] strictly below 3 nM?
// result label 0

// query Lab log: compare recorded Ki with 3 nM; is it strictly lower for CCc1ccncc1-c1cc2cc(NS(=O)(=O)C3CC3)ncc2c(N)n1 [Compound 79] ?
// result label 0

// query Consider Cc1ccncc1-c1cc2cc(NC(=O)O[C@@H]3CCNC3=O)ncc2c(N)n1 [Compound 133] . Does its Ki lie strictly below 3 nM?
// result label 0

###

Quick reference for log10 of Ki among some compounds
- SYSTEM_NAME: HPK1
- ASSAY_COMMENT: HPK1 Lantha Binding Assay ("Lanth")
- SETUP_CONDITIONS: Table B1-1, read-out: HPK1 Ki (μM) (Lanth)
Hello, just confirming the data are log10 of Ki with units of nM.

For orientation, consider the following solved cases.
Cc1ccncc1-c1nc(N)c2cnc(NC(=O)[C@@H]3C[C@H]3c3cnn(C)c3)cc2c1Cl [Compound 234]	-1.11
Cc1cc(-c2ncco2)ncc1-c1cc2cc(NC(=O)[C@H]3C[C@@H]3c3cnn(C)c3)ncc2c(N)n1 [Compound 308]	0.48
Cc1ccncc1-c1cc2cc(NC(=O)[C@@H]3C[C@H]3c3cnn(C)c3)ncc2c(N)n1 [Compound 198]	-0.26
COc1ccncc1-c1cc2cc(NC(=O)[C@@H]3C[C@@H]3F)ncc2c(N)n1 [Compound 10]	0.24
Nc1nc(-c2ccc[nH]c2=O)cc2cc(NC(=O)C3CC3)ncc12 [Compound 42]	1.61
CCc1ccncc1-c1cc2cc(NC(=O)OCc3ccccc3)ncc2c(N)n1 [Compound 57]	0.72

// query Entry CC(=O)N1C[C@@H]2[C@H](C1)[C@H]2C(=O)Nc1cc2cc(-c3cnccc3C)nc(N)c2cn1 [Compound 143] has what log10 of Ki?
// result 0.77

// query Query (compound): Cc1cc2c(cc1-c1cc3cc(NC(=O)[C@H]4C[C@@H]4C#N)ncc3c(N)n1)C(O)C(=O)N2 (relative stereo) [Compound 160] ; field requested: log10 of Ki
// result 0.08

// query Could you share which log10 of Ki value was measured for Cc1ccncc1-c1nc(N)c2cnc(NC(=O)Nc3cnn(C)c3)cc2c1Cl [Compound 163] ?
// result 0.08

// query Endpoint output: log10 of Ki of CCc1ccncc1-c1cc2cc(NC(=O)c3cnn(C4CCNCC4)c3)ncc2c(N)n1 [Compound 84] . Value?
// result 0.26
